- Test system: NCI/ADR-RES ovarian
- assay comment: NCI tumour cell line growth inhibition, 48 h
Parameter TGI: see the listing below.

Here's what some known entries look like.
compound: Cc1cc(S(=O)(=O)NC(=NCC(=O)NN)NN)c(S)cc1Cl
quantity measured: TGI
test result: > 10 µM

compound: CCCCC(=C=C1CCCCC1O)C1CCCN1C(=O)OC(C)(C)C (stereo not drawn)
quantity measured: TGI
test result: 30.6 µM

Then there is this compound:
Inquiry: Look up TGI for this compound: `COc1ccc(N=C2NN=C(c3c[nH]c4ccccc34)CS2)cc1OC`
Reply text: > 28 µM

###

- Tested on: NCI-H522 lung
- assay comment: NCI tumour cell line growth inhibition, 48 h
quantity measured: TGI

molecule: CSc1nc2c(ncn2C2OCC(O)C(O)C2O)c(=O)[nH]1 (stereo not drawn)
test result: > 100 µM

molecule: CN(Cc1nc2c(N)nc(N)nc2nc1N)c1ccc(C(=O)NC(CCC(=O)O)C(=O)O)cc1 (stereo not drawn)
test result: > 100 µM

Then there is this molecule:
Inquiry: Form: Entry = CCOC(=O)Cc1csc(NC(=O)C(OC(=O)c2ccc(N)cc2)c2ccccc2)n1 (stereo not drawn) | System = NCI-H522 lung | TGI = ____
Reply text: > 100 µM
